target: T1, c-Met ECD/Fc (R&D Systems #358 MT), human (human, UniProt P08581 25-932); assay: ELISA, inhibition of HGF binding to plate-coated c-Met ECD/Fc
T1 construct: extracellular domain; Bought fusion protein; also called c-Met ECD-Fc (human); human Met ECD-Fc; not shown: Fc part of the bought fusion protein
T1 sequence (P08581 25-932): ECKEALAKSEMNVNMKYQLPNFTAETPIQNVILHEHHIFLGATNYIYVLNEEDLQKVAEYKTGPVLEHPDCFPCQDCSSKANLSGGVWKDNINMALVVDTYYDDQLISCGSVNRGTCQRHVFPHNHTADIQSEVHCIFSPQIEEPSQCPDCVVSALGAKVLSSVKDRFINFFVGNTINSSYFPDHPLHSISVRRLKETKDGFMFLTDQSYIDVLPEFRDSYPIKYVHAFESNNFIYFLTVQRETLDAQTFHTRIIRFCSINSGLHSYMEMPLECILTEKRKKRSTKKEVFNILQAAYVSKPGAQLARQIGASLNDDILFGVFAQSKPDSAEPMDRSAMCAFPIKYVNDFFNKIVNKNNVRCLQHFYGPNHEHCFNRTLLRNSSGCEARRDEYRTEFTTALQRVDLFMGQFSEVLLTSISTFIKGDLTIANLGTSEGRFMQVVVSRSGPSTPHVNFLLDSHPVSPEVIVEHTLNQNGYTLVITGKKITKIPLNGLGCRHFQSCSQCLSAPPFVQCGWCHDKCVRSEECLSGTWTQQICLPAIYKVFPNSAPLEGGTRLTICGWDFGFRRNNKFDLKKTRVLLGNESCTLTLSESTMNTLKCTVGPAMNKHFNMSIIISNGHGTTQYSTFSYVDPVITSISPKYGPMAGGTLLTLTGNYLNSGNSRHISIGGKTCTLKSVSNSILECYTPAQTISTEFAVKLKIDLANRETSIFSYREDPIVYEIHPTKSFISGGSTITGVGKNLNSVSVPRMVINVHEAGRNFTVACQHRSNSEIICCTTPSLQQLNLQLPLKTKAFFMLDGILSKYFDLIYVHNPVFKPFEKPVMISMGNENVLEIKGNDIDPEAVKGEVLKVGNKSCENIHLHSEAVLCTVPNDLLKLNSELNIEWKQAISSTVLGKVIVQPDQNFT
Entries annotated with measured IC50
metric_name: IC50

[[record]]
binder = "anti-c-Met monoclonal antibody 13.3.2 (antibody, human IgG2, kappa, V domains shown, Human IgG2 kappa from XenoMouse hybridoma; The variable positions X2, X4, X6, X8 correspond to positions 42, 97, 14 (heavy) and 91 (light), where position one is the N-terminal amino acid; these numbers may not count on the entry with its leader; also called PTA-5026) VH: QVQLVQSGAEVKKPGASVKVSCEASGYTFTSYGFSWVRQAPGQGLEWMGWISASNGNTYYAQKLQGRVTMTTDTSTSSAYMELRSLRSDDTAVYYCARVYADYADYWGQGTLVTVSS VL: DIQMTQSPSSVSASVGDRVTITCRASQGINTWLAWYQQKPGKAPKLLIYAASSLKSGVPSRFSGSGSGADFTLTISSLQPEDFATYYCQQANSFPLTFGGGTKVEIKR"
metric_name = "IC50"
experimental_result = "0.09 µg/mL"

[[record]]
binder = "anti-c-Met monoclonal antibody 8.70.2 (antibody, V domains shown, Human IgG2 kappa; also called hybridoma 8.70.2 (LN 15885); PTA-5028) VH: QLQLQESGPGLVKPSETLSLTCTVSGGSISSSSYYGGWIRQPPGKGLDWIGSIYYSGNTYYNPSLKSRVTISVDTSKNQFSLKLSSVTAADTAVYYCARHSWDYFDYWDQGTLVTVSS VL: DIQMTQSPSSVSASVGDRVTITCRASQGISSWLAWYQQKPGKAPKLLIYAASSLQSGVPSRFSGSGSGTDFTLTISSLQSEDFATYYCQQANSFPITFGPGTKVEIKR"
metric_name = "IC50"
experimental_result = "0.115 µg/mL"

[[record]]
binder = "anti-c-Met monoclonal antibody 8.90.3 (antibody, V domains shown, Human IgG2 kappa) VH: EVQLVESGGGLVQPGGSLRLSCAASGFTFSRYSMNWVRQAPGKGLEWVSYISSRSSTIYYADSVKGRFTMSRDNAKNSLYMQMNSLRDEDTAVYYCGYGDYDYFDYWGQGTLVTVSS VL: DIQMTQSPSSVSASVGDRVIITCRASQGISSWLAWYQQKPGKAPKLLIYAASSLKSGVPSRFSGSGSGTDFTVTISSLQPEDFATYYCQQSNSLPWTFGQGTKVEIKR"
metric_name = "IC50"
experimental_result = "0.11 µg/mL"

[[record]]
binder = "anti-c-Met monoclonal antibody 9.1.2 (antibody, V domains shown, Human IgG2 kappa; also called hybridoma 9.1.2 (LN 15884); PTA-5027) VH: QVQLQESGPGLVKPSQTLSLTCTVSGGSISSGGYYWSWIRQHPGKGLEWIGYIYYSGSTYYNPSLKSRVTISVDTSKNQFSLKLSSVTAADTAVYYCARDGPLGYCSSTSCPVTGEYYYYGMDVWGQGTTVTVSS VL: EIVLTQSPGTLSLSPGERATLSCRASQSVSNNYLAWYQQKPGQAPRLLIFGASSRATGIPDRFSGSGSGTDFTLTISRLEPEDFAVYYCQQYDISPMYSFGQGTKLEMKR"
metric_name = "IC50"
experimental_result = "0.093 µg/mL"

